Species on record: Rattus norvegicus
Test: Open TG-GATES - Regimen: Daily Repeat
Type: toxicity, organism-based, Sprague-Dawley
Set-up: regimen Daily Repeat, gender Male, age 6 weeks
Details: in vivo, po, 0 mg/kg, 72 h, tissue Blood, route gavage, dose level Control, time 3 day

[
  {
    "COMPOUND": "CCc1oc2ccccc2c1C(=O)c1cc(Br)c(O)c(Br)c1 [BENZBROMARONE]",
    "MCHC / %": 34
  },
  {
    "COMPOUND": "CC[C@H]1[C@@H]2C[C@H]3[C@@H]4N(C)c5ccccc5[C@]45C[C@@H]([C@@H]2[C@H]5O)N3[C@@H]1O [AJMALINE]",
    "MCHC / %": 32.4
  },
  {
    "COMPOUND": "ClC(Cl)(Cl)Cl [CARBON TETRACHLORIDE]",
    "MCHC / %": 34.2
  },
  {
    "COMPOUND": "CCCCc1oc2ccccc2c1C(=O)c1cc(I)c(OCCN(CC)CC)c(I)c1 [AMIODARONE]",
    "MCHC / %": 34.1
  },
  {
    "COMPOUND": "CN(C)CCC=C1c2ccccc2COc2ccccc21 [DOXEPIN]",
    "MCHC / %": 34.7
  },
  {
    "COMPOUND": "CC(C)N(CCC(C(N)=O)(c1ccccc1)c1ccccn1)C(C)C (stereo unspecified) [DISOPYRAMIDE]",
    "MCHC / %": 32
  },
  {
    "COMPOUND": "O=NN(CCCl)C(=O)NC1CCCCC1 [LOMUSTINE]",
    "MCHC / %": 33.3
  },
  {
    "COMPOUND": "CCC1(c2ccccc2)C(=O)NC(=O)NC1=O [PHENOBARBITAL]",
    "MCHC / %": 33.6
  },
  {
    "COMPOUND": "CN(C)C(=N)N=C(N)N [METFORMIN]",
    "MCHC / %": 34
  },
  {
    "COMPOUND": "CC1=C(CC(=O)O)c2cc(F)ccc2/C1=C\\c1ccc([S+](C)[O-])cc1 (stereo unspecified)",
    "MCHC / %": 33.3
  },
  {
    "COMPOUND": "OCCOCCN1CCN(C(c2ccccc2)c2ccc(Cl)cc2)CC1 (stereo unspecified) [HYDROXYZINE]",
    "MCHC / %": 33.1
  }
]
